Data provenance is ChEMBL document CHEMBL4020831.

measured_target: UniProt:Q15303
Sequence (Q15303 whole entry): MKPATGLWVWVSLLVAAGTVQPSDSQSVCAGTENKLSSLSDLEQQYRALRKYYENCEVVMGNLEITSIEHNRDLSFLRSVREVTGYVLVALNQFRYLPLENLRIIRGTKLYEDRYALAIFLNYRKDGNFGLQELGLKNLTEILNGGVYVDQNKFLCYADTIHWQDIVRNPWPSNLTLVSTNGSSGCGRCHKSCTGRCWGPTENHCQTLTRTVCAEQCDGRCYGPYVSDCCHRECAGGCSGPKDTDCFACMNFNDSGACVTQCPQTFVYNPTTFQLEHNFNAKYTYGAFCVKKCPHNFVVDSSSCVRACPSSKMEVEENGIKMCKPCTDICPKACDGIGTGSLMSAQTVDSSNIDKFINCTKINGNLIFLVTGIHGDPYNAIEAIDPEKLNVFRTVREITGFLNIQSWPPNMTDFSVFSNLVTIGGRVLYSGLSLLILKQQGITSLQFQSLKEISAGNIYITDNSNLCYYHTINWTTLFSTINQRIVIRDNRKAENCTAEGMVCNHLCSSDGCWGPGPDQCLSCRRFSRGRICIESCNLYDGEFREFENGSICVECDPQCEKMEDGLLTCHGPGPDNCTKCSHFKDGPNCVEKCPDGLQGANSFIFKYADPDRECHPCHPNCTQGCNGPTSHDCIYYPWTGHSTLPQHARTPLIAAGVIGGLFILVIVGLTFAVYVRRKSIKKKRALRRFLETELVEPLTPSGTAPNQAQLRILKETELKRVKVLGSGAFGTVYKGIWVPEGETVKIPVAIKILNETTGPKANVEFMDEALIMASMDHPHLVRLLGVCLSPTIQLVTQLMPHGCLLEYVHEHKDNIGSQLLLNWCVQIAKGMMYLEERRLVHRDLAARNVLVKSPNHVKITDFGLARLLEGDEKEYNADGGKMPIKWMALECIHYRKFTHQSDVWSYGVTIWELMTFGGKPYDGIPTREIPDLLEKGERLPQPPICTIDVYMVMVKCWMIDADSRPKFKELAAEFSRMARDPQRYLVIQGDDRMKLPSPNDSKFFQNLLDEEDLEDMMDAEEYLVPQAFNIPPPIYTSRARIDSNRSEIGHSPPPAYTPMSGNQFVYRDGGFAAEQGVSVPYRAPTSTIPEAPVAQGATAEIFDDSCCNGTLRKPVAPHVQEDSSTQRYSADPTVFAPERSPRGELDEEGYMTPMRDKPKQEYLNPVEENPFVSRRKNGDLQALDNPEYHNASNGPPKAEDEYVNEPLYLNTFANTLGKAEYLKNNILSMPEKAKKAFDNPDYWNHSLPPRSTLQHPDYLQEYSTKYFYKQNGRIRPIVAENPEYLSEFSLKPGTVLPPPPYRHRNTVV
assay_overview: Inhibition of recombinant human cytoplasmic GST-tagged ERBB4 expressed in baculovirus at 1 uM by Z'-LYTE assay
attribute_measured: inhibition at 1 µM (%)

// solved cases for inhibition at 1 µM follow
CC#CC(=O)N1CCC[C@H]1c1nc(-c2ccc(C(=O)Nc3ccccn3)cc2)c2c(N)nccn12 = 93
Cc1c(-c2c(F)cc(C(N)=O)c3[nH]c4c(c23)CC[C@@H](C(C)(C)O)C4)cccc1-n1c(=O)c2cccc(F)c2n(C)c1=O = 38
C=CC(=O)Nc1cccc(Nc2nc(Nc3ccc(OCCOC)cc3)ncc2F)c1 = 76

1. C=CC(=O)N1CCC(CNc2ncnc(N)c2-c2ccc(Oc3ccccc3)cc2)CC1
2. CC#CC(=O)N1CC[C@@H](n2c(=O)n(-c3ccc(Oc4ccccc4)cc3)c3c(N)ncnc32)C1
3. C[C@H]1CN(C2COC2)CCN1c1ccc(Nc2cc(-c3ccnc(N4CCn5c(cc6c5CC(C)(C)C6)C4=O)c3CO)cn(C)c2=O)nc1
Query: Reorder the items by inhibition at 1 µM, least to greatest. Answer by naming the labels in the order asked.
Response: 3, 2, 1
(3: 1%, 2: 28%, 1: 57%)
